Reference source: patent US20260132197A1

- TARGET UNDER TEST: T1, Human CD47-C33G (human, UniProt Q08722 19-135)
- T1 construct: also called CD47 mutein with C33G mutation
- T1 sequence (Q08722 19-135 C33G limits assumed): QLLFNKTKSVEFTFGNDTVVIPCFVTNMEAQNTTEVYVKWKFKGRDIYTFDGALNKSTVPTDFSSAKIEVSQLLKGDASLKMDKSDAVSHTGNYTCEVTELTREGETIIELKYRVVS
- EXPERIMENT SUMMARY: SPR, IgG captured, CD47 in flow; exp 2;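 further: rates derived from association and dissociation curves, KD estimated from them, C33G mutein used to avoid CD47 IgV homodimers for true monovalent affinity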
PROPERTY NAME: koff (s⁻¹)
Respond numerically; units are s⁻¹ and should not be typed.

BINDER	UNITS	koff
108VH10 / 108VL10.M1 (antibody, V domains shown, 4D5-framework series; also called VH10 VL10.M1; straight-graft antibody) VH: EVQLVESGGGLVQPGGSLRLSCAASGYSFTHHWIHWVRQAPGKGLEWVAMIDPSDSETRLSQKFKDRFTISADTSKNTAYLQMNSLRAEDTAVYYCSRLGRYYFDYWGQGTLVTVSS VL: DIQMTQSPSSLSASVGDRVTITCRASENVGTYISWYQQKPGKAPKLLIYGASNRYTGVPSRFSGSRSGTDFTLTISSLQPEDFATYYCGESYGHLYTFGQGTKVEIK	s⁻¹	0.0038
108VH10.Ma / 108VL10.M1 (antibody, V domains shown, 4D5-framework series; constant regions not restated for this series; also called VH10.Ma VL10.M1) VH: EVQLVESGGGLVQPGGSLRLSCAASGFTFSHHWIHWVRQAPGKGLEWVAMIDPSDSETRLSQKFKDRFTISADTSKNTAYLQMNSLRAEDTAVYYCSRLGRYYFDYWGQGTLVTVSS VL: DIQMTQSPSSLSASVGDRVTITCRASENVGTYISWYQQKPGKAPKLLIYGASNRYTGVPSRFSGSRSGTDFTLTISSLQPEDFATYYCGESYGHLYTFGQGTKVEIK	s⁻¹	0.0046
108VH10 / 108VL10.Mc (antibody, V domains shown, 4D5-framework series; constant regions not restated for this series; also called VH10 VL10.Mc) VH: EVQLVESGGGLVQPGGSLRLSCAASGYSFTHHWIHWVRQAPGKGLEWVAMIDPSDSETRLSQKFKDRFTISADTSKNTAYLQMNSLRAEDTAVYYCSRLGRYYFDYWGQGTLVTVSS VL: DIQMTQSPSSLSASVGDRVTITCRASENVGTYISWYQQKPGKAPKLLIYGASSRYTGVPSRFSGSRSGTDFTLTISSLQPEDFATYYCGESYGHLYTFGQGTKVEIK	s⁻¹	0.0044

Exercise: # return recorded koff for entry 108VH10 / 108VL10.Mb (antibody, V domains shown, 4D5-framework series; constant regions not restated for this series; also called VH10 VL10.Mb) VH: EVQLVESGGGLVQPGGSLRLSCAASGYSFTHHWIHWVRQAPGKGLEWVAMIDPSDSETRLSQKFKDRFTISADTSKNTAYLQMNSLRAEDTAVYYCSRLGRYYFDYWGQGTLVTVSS VL: DIQMTQSPSSLSASVGDRVTITCRASENVGTYISWYQQKPGKAPKLLIYAASNRYTGVPSRFSGSRSGTDFTLTISSLQPEDFATYYCGESYGHLYTFGQGTKVEIK
Key: 0.016

Exercise: Read off the recorded koff for chimeric antibody 108C10A6 (antibody, V domains shown, Chimeric antibody with mouse variable domains; captured through human Fc; also called VH / VL) VH: QMQLQQSGPQLVRPGASVKISCKTSGYSFTHHWIHWMKQRPGQGLEWIGMIDPSDSETRLSQKFKDKATLTVDASSSTAYMQLNSPTSEDSALYFCARLGRYYFDYWGQGTTLTVSS VL: NIVMTQSPRSMSMSVGERVTLSCKASENVGTYISWYQQKPDQSPKLLIYGASNRYTGVPDRFTGSGSGTDFTLTISTVQAEDLADYHCGESYGHLYTFGGGTKLEIK
Key: 0.00074

Exercise: Supply reported koff belonging to this binder: 108VH10.Mb / 108VL10.M1 (antibody, V domains shown, 4D5-framework series; constant regions not restated for this series; also called VH10.Mb VL10.M1) VH: EVQLVESGGGLVQPGGSLRLSCAASGYSFTHHWMHWVRQAPGKGLEWVAMIDPSDSETRLSQKFKDRFTISADTSKNTAYLQMNSLRAEDTAVYYCSRLGRYYFDYWGQGTLVTVSS VL: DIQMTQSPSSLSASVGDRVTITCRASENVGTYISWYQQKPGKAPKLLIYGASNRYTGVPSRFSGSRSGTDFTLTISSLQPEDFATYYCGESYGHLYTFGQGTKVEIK
Key: 0.0035

Exercise: # return recorded koff for input 108VH10 / 108VL10.Md (antibody, V domains shown, 4D5-framework series; constant regions not restated for this series; also called VH10 VL10.Md) VH: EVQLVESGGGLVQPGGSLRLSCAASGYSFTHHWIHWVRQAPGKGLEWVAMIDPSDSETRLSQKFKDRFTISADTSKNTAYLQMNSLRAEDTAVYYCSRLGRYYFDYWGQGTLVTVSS VL: DIQMTQSPSSLSASVGDRVTITCRASENVGTYISWYQQKPGKAPKLLIYGASNRYSGVPSRFSGSRSGTDFTLTISSLQPEDFATYYCGESYGHLYTFGQGTKVEIK
Key: 0.0036

Exercise: Look up and report measured koff for this entry: 108VH10 / 108VL10.Ma (antibody, V domains shown, 4D5-framework series; constant regions not restated for this series; also called VH10 VL10.Ma) VH: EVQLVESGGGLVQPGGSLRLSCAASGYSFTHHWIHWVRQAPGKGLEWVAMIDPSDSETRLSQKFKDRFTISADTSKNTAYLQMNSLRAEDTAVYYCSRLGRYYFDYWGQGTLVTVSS VL: DIQMTQSPSSLSASVGDRVTITCRASQSISSYLNWYQQKPGKAPKLLIYGASNRYTGVPSRFSGSRSGTDFTLTISSLQPEDFATYYCGESYGHLYTFGQGTKVEIK
Key: 0.0029

Exercise: # return recorded koff for entry 108VH4.M4-VL1.M1 (antibody, V domains shown, also called original humanized 108C10A6 antibody) VH: EVQLVQSGAEVKKPGSSVKVSCKASGYSFTHHWIHWVRQAPGQGLEWMGMIDASDSETRLSQKFKDRVTITADKSTSTAYMELSSLRSEDTAVYYCARLGRYYFDYWGQGTTVTVSS VL: EIVLTQSPATLSLSPGERATLSCRASENVGTYISWYQQKPGQAPRLLIYGASNRYTGIPARFSGSGSGTDFTLTISSLEPEDFAVYYCGESYGHLYTFGGGTKVEIK
Key: 0.00097

Exercise: Look up and report measured koff for this entry: 108VH10.Mf / 108VL10.M1 (antibody, V domains shown, 4D5-framework series; constant regions not restated for this series; also called VH10.Mf VL10.M1) VH: EVQLVESGGGLVQPGGSLRLSCAASGYSFTHHWIHWVRQAPGKGLEWVAMIDPSDSETRLVDSVKGRFTISADTSKNTAYLQMNSLRAEDTAVYYCSRLGRYYFDYWGQGTLVTVSS VL: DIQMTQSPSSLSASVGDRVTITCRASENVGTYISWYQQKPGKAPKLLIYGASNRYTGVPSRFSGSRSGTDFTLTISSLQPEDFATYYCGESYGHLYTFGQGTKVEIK
Key: 0.014
